Origin of values: ChEMBL document CHEMBL1126043

Please provide measured Normalization for the entries that follow.
test system: Mus musculus; experiment: In vivo euglycemic activity (administered by oral gavage) in C57/6J-ob/ob mice measured by normalization of blood glucose levels at a dose of 5 mg/kg.; type: functional

COMPOUND: Cc1oc(-c2ccccc2)nc1CCC(=O)c1ccc(CC2SC(=O)NC2=O)cc1 (configuration not stated) [DARGLITAZONE]
Normalization: 100%

COMPOUND: O=C1NC(=O)C(Cc2ccc(C(=O)CCc3ccccc3)cc2)S1 (configuration not stated)
Normalization: 53%

COMPOUND: Cc1oc(-c2ccccc2)nc1CC(=O)N(C)c1ccc(CC2SC(=O)NC2=O)cc1 (configuration not stated)
Normalization: 9%

COMPOUND: Cc1nc(-c2ccccc2)c(CCC(=O)c2ccc(CC3SC(=O)NC3=O)cc2)s1 (configuration not stated)
Normalization: 61%

COMPOUND: O=C1NC(=O)C(Cc2ccc(C(=O)/C=C/c3ccc(OCc4ccccc4)cc3)cc2)S1 (configuration not stated)
Normalization: 64%

COMPOUND: Cc1oc(-c2ccccc2)nc1CN(C)C(=O)c1ccc(CC2SC(=O)NC2=O)cc1 (configuration not stated)
Normalization: 83%

COMPOUND: Cc1oc(-c2ccccc2)nc1CCC(O)c1ccc(CC2SC(=O)NC2=O)s1 (configuration not stated)
Normalization: 100%

COMPOUND: Cc1oc(-c2ccccc2)nc1CCC(=O)c1ccc(CC2SC(=O)NC2=O)s1 (configuration not stated)
Normalization: 100%

State the recorded Normalization for every item in the following list.
1. Cc1oc(-c2ccccc2)nc1CC/C(=N\O)c1ccc(CC2SC(=O)NC2=O)cc1 (configuration not stated)
2. Cc1oc(-c2ccccc2)nc1/C=C/C(=O)c1ccc(CC2SC(=O)NC2=O)cc1 (configuration not stated)
3. O=C1NC(=O)C(Cc2ccc(C(=O)/C=C/c3ccccc3)cc2)S1 (configuration not stated)
4. CCN(C(=O)Cc1nc(-c2ccccc2)oc1C)c1ccc(CC2SC(=O)NC2=O)cc1 (configuration not stated)

Result:
["100%", "100%", "23%", "25%"]

* * *

tested on: Mus musculus; assay: In vivo euglycemic activity (administered by oral gavage) in C57/6J-ob/ob mice measured by normalization of blood glucose levels at a dose of 5 mg/kg.; assay type: functional
One threshold, 50%, splits the recorded Normalization values: lower ones are fulfilled, equal or higher ones are not fulfilled.

Recorded results for 2 compounds are shown here.
COMPOUND: O=C1NC(=O)C(Cc2ccc3c(c2)CCC(Cc2ccccc2)O3)S1 (stereo not given)
CLASS NAME: fulfilled

COMPOUND: O=C1NC(=O)C(Cc2ccc(C(=O)/C=C/c3ccccc3C(F)(F)F)cc2)S1 (stereo not given)
CLASS NAME: fulfilled

Request: is_below(Normalization, 50%) for Cc1oc(-c2ccccc2)nc1CC(=O)Nc1ccc(CC2SC(=O)NC2=O)cc1 (stereo not given) ?
Result: not fulfilled

Request: is_below(Normalization, 50%) for Cc1oc(-c2ccc3ccccc3c2)nc1CCS(=O)(=O)c1ccc(CC2SC(=O)NC2=O)cc1 (stereo not given) ?
Result: fulfilled

Request: is_below(Normalization, 50%) for Cc1oc(-c2ccccc2)nc1CN(C)S(=O)(=O)c1ccc(CC2SC(=O)NC2=O)cc1 (stereo not given) ?
Result: fulfilled

Request: is_below(Normalization, 50%) for CCc1ccc(CCC(=O)c2ccc(CC3SC(=O)NC3=O)cc2)nc1 (stereo not given) ?
Result: fulfilled
